molecular target: alpha2B receptor (Homo sapiens); construct: expressed in transfected cells; host or cells: NIH-3T3 cells; assay: Receptor Selection and Amplification Technology (RSAT) assay, Alpha 2B; assay type: cell-based; conditions: ratio of maximal effect to that of standard full agonist brimonidine (UK14304)
Sequence (P18089 whole entry): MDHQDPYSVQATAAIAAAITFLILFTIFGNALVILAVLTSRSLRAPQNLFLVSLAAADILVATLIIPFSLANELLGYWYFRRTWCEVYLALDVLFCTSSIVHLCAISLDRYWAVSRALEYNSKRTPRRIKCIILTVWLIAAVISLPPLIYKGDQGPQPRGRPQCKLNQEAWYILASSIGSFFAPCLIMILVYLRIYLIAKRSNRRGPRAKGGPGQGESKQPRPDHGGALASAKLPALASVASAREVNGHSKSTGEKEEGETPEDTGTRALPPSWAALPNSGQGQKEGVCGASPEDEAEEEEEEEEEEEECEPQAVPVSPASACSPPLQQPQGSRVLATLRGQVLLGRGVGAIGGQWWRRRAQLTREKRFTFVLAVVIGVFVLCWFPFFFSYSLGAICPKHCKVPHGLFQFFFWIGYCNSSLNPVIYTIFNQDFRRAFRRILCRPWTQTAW
Classify by measured Alpha 2B IA (intrinsic activity): Condition met if it is equal to or exceeds 0.9, Condition not met if it is smaller.

Check out these entries, answers already filled in.
>>> print(df.to_string())
                                   compound       answer_label
0  Cc1cccc(C(Cc2cccc(F)c2F)NC(=O)NCCF)c1 (stereo not drawn)      Condition met
1  O=C(NCCF)NC(Cc1ccccc1Cl)c1ccccc1 (stereo not drawn)  Condition not met
2  O=C(NCCF)NC(Cc1cccc(F)c1)c1cccnc1 (stereo not drawn)  Condition not met
3  O=C(NCCF)NC(Cc1cccc(F)c1)c1ccccc1 (stereo not drawn)      Condition met
4  Cc1cccc(C(Cc2cc(F)ccc2F)NC(=O)NCCF)c1 (stereo not drawn)      Condition met
5  COc1ccc(C(Cc2ccccc2)NC(=O)NCCF)cc1 (stereo not drawn)  Condition not met
6  Cc1cccc(C(Cc2ccsc2)NC(=O)NCCF)c1 (stereo not drawn)      Condition met
7  O=C(NCCF)NC(Cc1ccc(F)cc1)c1ccccc1 (stereo not drawn)      Condition met

Q: Hi, just wondering whether O=C(NCCF)NC(Cc1ccccc1)c1ccc(Cl)cc1 (stereo not drawn) shows Alpha 2B IA (intrinsic activity) of 0.9 or higher.
Result: Condition not met

Q: Hi, just wondering whether Cc1cccc(C(Cc2ccccn2)NC(=O)NCCF)c1 (stereo not drawn) shows Alpha 2B IA (intrinsic activity) of 0.9 or higher.
Result: Condition not met
